Every entry's value here was drawn from patent US10457703B2.

- tested-target: human FXR (NR1H4) (Homo sapiens (Human), UniProt Q96RI1)
- Sequence (Q96RI1 whole entry, the tested form may be a part): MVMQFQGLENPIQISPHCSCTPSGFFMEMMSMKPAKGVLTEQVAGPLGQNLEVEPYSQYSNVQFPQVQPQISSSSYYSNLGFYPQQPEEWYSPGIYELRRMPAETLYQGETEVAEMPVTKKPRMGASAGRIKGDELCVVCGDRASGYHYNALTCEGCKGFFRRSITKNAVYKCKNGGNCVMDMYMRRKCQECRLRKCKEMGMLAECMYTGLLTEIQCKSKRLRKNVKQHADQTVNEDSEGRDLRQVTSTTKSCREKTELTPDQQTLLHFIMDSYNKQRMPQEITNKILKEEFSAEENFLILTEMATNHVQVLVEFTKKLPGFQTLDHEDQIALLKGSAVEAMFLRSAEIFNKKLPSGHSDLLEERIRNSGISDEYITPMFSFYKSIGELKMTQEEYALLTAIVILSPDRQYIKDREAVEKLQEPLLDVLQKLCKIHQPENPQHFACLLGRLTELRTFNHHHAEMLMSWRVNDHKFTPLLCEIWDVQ
- test-protocol: Human FXR (NR1H4) Assay (Gal4 promoter driven luciferase reporter, Indigo Bioscience kit)
- reported-conditions: Human FXR (NR1H4) Assay, potency ranges
pEC50: −log10 of the molar value.
Entries and their measured pEC50 follow.
measure: pEC50

CC[C@H]1[C@@H](O)[C@@H]2[C@H](CC[C@]3(C)[C@@H]([C@H](C)CCOC(=O)NC4CCCC4O)CC[C@@H]23)[C@@]2(C)CC[C@@H](O)C[C@@H]12 (some centres unmarked) | > 7.00
CC[C@H]1[C@@H](O)[C@@H]2[C@H](CC[C@]3(C)[C@@H]([C@H](C)CCOC(=O)NC4(C)CC4)CC[C@@H]23)[C@@]2(C)CC[C@@H](O)C[C@@H]12 | 6.00 to 7.00
CC[C@H]1[C@@H](O)[C@@H]2[C@H](CC[C@]3(C)[C@@H]([C@H](C)COC(=O)NS(=O)(=O)c4ccc(N5C6CCC5CC6)cc4)CC[C@@H]23)[C@@]2(C)CC[C@@H](O)C[C@@H]12 | > 7.00
CC[C@H]1[C@@H](O)[C@@H]2[C@H](CC[C@]3(C)[C@@H]([C@H](C)CCOC(=O)NCC(=O)O)CC[C@@H]23)[C@@]2(C)CC[C@@H](O)C[C@@H]12 | 5.00 to 6.00
CC[C@H]1[C@@H](O)[C@@H]2[C@H](CC[C@]3(C)[C@@H]([C@H](C)CCCOC(=O)N(CC)CC)CC[C@@H]23)[C@@]2(C)CC[C@@H](O)C[C@@H]12 | 5.00 to 6.00
